Data export: Ki values recorded with Acetylcholinesterase (Electrophorus electricus).
Sequence (O42275 whole entry): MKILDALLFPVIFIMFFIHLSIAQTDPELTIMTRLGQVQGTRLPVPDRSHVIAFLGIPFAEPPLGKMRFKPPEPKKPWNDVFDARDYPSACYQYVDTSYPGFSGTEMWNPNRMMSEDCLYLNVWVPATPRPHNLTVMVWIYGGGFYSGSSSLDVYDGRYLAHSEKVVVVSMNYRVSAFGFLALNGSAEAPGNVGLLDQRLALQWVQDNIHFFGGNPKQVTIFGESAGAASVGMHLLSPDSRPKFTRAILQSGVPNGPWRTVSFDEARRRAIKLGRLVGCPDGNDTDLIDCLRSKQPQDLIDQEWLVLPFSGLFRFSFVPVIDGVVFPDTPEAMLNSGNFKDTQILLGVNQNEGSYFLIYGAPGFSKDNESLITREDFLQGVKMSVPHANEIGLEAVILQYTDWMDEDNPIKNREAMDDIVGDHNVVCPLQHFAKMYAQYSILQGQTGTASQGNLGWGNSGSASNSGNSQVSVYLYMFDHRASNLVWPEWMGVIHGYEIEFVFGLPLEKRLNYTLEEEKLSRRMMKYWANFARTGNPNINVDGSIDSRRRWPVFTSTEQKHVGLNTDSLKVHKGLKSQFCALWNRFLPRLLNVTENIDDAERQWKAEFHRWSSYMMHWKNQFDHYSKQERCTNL

These recorded examples may help you get a feel for the data.
input.smiles	Ki
CCOC(=O)[C@@]1(C)CC[C@]2(C)CC[C@]3(C)C(=CC(=O)[C@@H]4[C@@]5(C)CC[C@H](OC(=O)[C@H](Cc6ccccc6)NC(=O)OC(C)(C)C)C(C)(C)[C@@H]5CC[C@]43C)[C@@H]2C1	> 2 µM
CC1(C)[C@@H](O)CC[C@]2(C)[C@H]3C(=O)C=C4[C@@H]5C[C@@](C)(C(=O)O/C(=N\C6CCCCC6)NC6CCCCC6)CC[C@]5(C)CC[C@@]4(C)[C@]3(C)CC[C@@H]12	> 10 µM

Kindly consider the entry below.
For the molecule `CC1(C)[C@@H](O)CC[C@]2(C)[C@H]3C(=O)C=C4[C@@H]5C[C@@](C)(C(=O)NCCN)CC[C@]5(C)CC[C@@]4(C)[C@]3(C)CC[C@@H]12` , the measured Ki on Acetylcholinesterase (Electrophorus electricus) was > 100 µM

###

target: UniProt:P81908; test: Inhibition of equine serum BChE using butyrylthiocholine iodide as substrate after 20 mins measured for 1 min interval for 30 mins by Ellman's method
Sequence (P81908 whole entry): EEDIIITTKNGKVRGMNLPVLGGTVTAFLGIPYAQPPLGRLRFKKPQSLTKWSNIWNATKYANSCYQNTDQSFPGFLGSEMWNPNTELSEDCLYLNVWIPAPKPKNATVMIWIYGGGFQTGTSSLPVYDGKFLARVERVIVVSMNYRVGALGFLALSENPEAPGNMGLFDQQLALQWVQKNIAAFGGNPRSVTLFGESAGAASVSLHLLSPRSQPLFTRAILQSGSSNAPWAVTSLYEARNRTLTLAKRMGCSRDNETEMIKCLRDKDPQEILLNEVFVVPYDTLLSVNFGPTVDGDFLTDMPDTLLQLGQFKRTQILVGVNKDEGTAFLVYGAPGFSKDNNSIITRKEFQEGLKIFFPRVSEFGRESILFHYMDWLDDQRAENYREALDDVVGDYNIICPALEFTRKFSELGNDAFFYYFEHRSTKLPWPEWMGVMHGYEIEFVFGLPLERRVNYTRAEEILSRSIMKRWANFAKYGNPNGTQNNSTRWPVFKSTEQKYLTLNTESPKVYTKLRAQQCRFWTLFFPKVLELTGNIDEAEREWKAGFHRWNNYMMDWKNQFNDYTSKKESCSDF
As shown below, each of these compounds has a reported Ki value.

These recorded examples may help you get a feel for the data.
input.smiles	Ki
CC1(C)[C@@H](O)CC[C@]2(C)[C@H]3C(=O)C=C4[C@@H]5C[C@@](C)(C(=O)O/C(=N\C6CCCCC6)NC6CCCCC6)CC[C@]5(C)CC[C@@]4(C)[C@]3(C)CC[C@@H]12	> 10 µM
COC(=O)[C@@]1(C)CC[C@]2(C)CC[C@]3(C)C(=CC(=O)[C@@H]4[C@@]5(C)CC[C@H](OC(=O)[C@H](C)N)C(C)(C)[C@@H]5CC[C@]43C)[C@@H]2C1	> 100 µM
CC(C)(C)OC(=O)NCCCNC(=O)[C@@]1(C)CC[C@]2(C)CC[C@]3(C)C(=CC(=O)[C@@H]4[C@@]5(C)CC[C@H](O)C(C)(C)[C@@H]5CC[C@]43C)[C@@H]2C1	> 10 µM
CC1(C)[C@@H](OC(=O)CN)CC[C@]2(C)[C@H]3C(=O)C=C4[C@@H]5C[C@@](C)(C(=O)O)CC[C@]5(C)CC[C@@]4(C)[C@]3(C)CC[C@@H]12	> 100 µM
COC(=O)[C@@]1(C)CC[C@]2(C)CC[C@]3(C)C(=CC(=O)[C@@H]4[C@@]5(C)CC[C@H](OC(=O)[C@@H](N)CCC(=O)OCc6ccccc6)C(C)(C)[C@@H]5CC[C@]43C)[C@@H]2C1	> 100 µM

Reported Ki of `C=CCCOC(=O)[C@@]1(C)CC[C@]2(C)CC[C@]3(C)C(=CC(=O)[C@@H]4[C@@]5(C)CC[C@H](O)C(C)(C)[C@@H]5CC[C@]43C)[C@@H]2C1` : > 100 µM

Reported Ki of `CNCC(=O)O[C@H]1CC[C@]2(C)[C@H]3C(=O)C=C4[C@@H]5C[C@@](C)(C(=O)OC)CC[C@]5(C)CC[C@@]4(C)[C@]3(C)CC[C@H]2C1(C)C` : > 100 µM

Reported Ki of `COC(=O)[C@@]1(C)CC[C@]2(C)CC[C@]3(C)C(=CC(=O)[C@@H]4[C@@]5(C)CC[C@H](OC(=O)[C@@H](N)CC(=O)O)C(C)(C)[C@@H]5CC[C@]43C)[C@@H]2C1` : > 100 µM

Reported Ki of `COC(=O)[C@@]1(C)CC[C@]2(C)CC[C@]3(C)C(=CC(=O)[C@@H]4[C@@]5(C)CC[C@H](OC(=O)[C@@H](C)N)C(C)(C)[C@@H]5CC[C@]43C)[C@@H]2C1` : > 100 µM
